// log10 of TGI lookup, one value per entry
system: HOP-92 NSCLC; assay: NCI tumour cell line growth inhibition, 48 h
Readout: log10 of TGI (log10 of the value in µM)

INSERT INTO measurements (compound, endpoint_value) VALUES
  ('N#CC(=C1SCS1)[N+](=O)[O-]', 1.02),
  ('C=C1C(O)C2CCC(C)(C)C(=O)C2=C(CC(C)C)C12CC2 (stereo unspecified)', 1.85),
  ('Cc1ccc(-c2cc(N)n(-c3nc4c([nH]3)c(=O)n(C)c(=O)n4C)n2)cc1', 1.51),
  ('CNC(=O)c1ccccc1CC1(O)c2ccccc2Oc2ccccc21', 1.65),
  ('CC(C)C(Sc1nc(-c2ccccc2)c(-c2ccccc2)[nH]1)C(=O)NNC(=S)Nc1ccccc1 (stereo unspecified)', 1.54),
  ('O=C(c1cccs1)c1c(C(F)(F)F)n([O-])c2ccccc2[n+]1=O', 0.36),
  ('O=C1CC(=O)N(c2ccccc2)N1/C(=C/c1ccccc1)c1ccccc1', 1.50);

* * *

tested on: CAKI-1 renal; experiment: NCI tumour cell line growth inhibition, 48 h
Recorded TGI for the following compounds
Readout: TGI

INSERT INTO results (compound, endpoint_value) VALUES
  ('O=[Se]([O-])c1ccccc1.O=[Se]([O-])c1ccccc1.[OH3+].[OH3+].[Pt+2]', '> 26.4 µM'),
  ('O=C(Nc1cccc(-n2ccc3c(NC(=O)c4ccccc4)nccc32)c1)c1cccc(C(F)(F)F)c1', '3.36 µM'),
  ('C[C@@H]1CC[C@H]2C(COCC3=C(C(F)(F)F)O[C@@H]4O[C@@]5(C)CC[C@H]6[C@H](C)CC[C@@H]3[C@@]46OO5)=C(C(F)(F)F)O[C@@H]3O[C@@]4(C)CC[C@@H]1[C@]32OO4', '> 100 µM'),
  ('CC(=O)[CH-]C(=O)c1ccccc1.CC(=O)[CH-]C(=O)c1ccccc1.CCCCCCCCCCCCCCCCCC(=O)[O-].CCCCCCCCCCCCCCCCCC(=O)[O-].[Ti+4]', '39.9 µM'),
  ('CCOC(=O)CC1=Nc2ccccc2SC1', '> 100 µM'),
  ('COC1OC(=O)[C@H]2O[N+]([O-])=C(C)[C@@H]12 (stereo partly drawn)', '> 100 µM'),
  ('Fc1cccc(COc2ccc(Nc3ncncc3C#Cc3ccccc3)cc2Cl)c1', '> 25 µM'),
  ('CN=C(N)N/N=C(\c1ccccc1)c1ccc(Br)cc1', '13.2 µM');

* * *

test system: DMS 114 small cell lung; assay: NCI tumour cell line growth inhibition, 48 h
Documented TGI across a set of compounds
Readout: TGI (µM)

INSERT INTO results (compound, tested_target, bound_operator, endpoint_value) VALUES
  ('CCOC(=O)C1=C(C)N(c2ccccc2)C2=C(C(=O)N(c3ccccc3)C2c2ccccc2)C1c1ccccc1 (stereo not drawn)', 'DMS 114 small cell lung', '>', 100),
  ('CCCCCCCCCCCCC(=O)OC(c1cnco1)c1nc(C(O)CC(O)C(O)C(C)O)co1 (stereo not drawn)', 'DMS 114 small cell lung', '=', 3.96),
  ('O=C1CC2(C[C@@H]3CCCCCCCCC[C@@H](C3)C2)N1 (stereo partly drawn)', 'DMS 114 small cell lung', '=', 31.6);
